Assay: CCTE_Shafer_MEA_acute_AB: CCTE's Alamar Blue Assay for Cytotoxicity in the Neural Acute Assay, Shafer Lab (AID 2284069);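 note: active compounds lower the viability signal compared with DMSO wells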
Method: CCTE_Shafer_MEA_acute assay is conducted using Axion Biosystems 48 well microelectrode array (MEA) plates and Maestro recording system. Each well of the MEA plate contains a grid of 16 microelectrodes embedded in the culture surface. Electrically active cells, such as neurons, can be cultured over the electrodes, and electrical activity in these cells can be recorded extracellularly. […]
Results filed as inconclusive are left out. Activity calls are given as the source filed them. Rule for the calls: active = hit-call score of the fitted dose curve at least 0.9, where 1 is the maximum; inconclusive = response in the unintended direction; inactive = score below 0.9.
Output constraint: value belongs to class 1 = active, class 0 = inactive

These solved cases illustrate the format of a correct answer.
COMPOUND	CAT
O=C(Nc1ccc2[nH]ccc2c1)c1cc2cc(F)ccc2n1Cc1cccc(F)c1	class 0
CCC(=O)C(CC(C)N(C)C)(c1ccccc1)c1ccccc1 (configuration not stated)	class 0

Ask | Tell me the recorded outcome of this test for "CCC(C)(C)c1ccc(O)c(C(C)(C)CC)c1" .
Reply | class 1

Ask | Tell me the recorded outcome of this test for "CC(=O)[O][Hg][c]1ccccc1" .
Reply | class 1

Ask | Tell me the recorded outcome of this test for "COC(=O)Cc1ccccc1" .
Reply | class 0

Ask | Tell me the recorded outcome of this test for "CC(C)(C)CC(C)(C)c1ccc(O)cc1" .
Reply | class 0

Ask | Tell me the recorded outcome of this test for O=C1C2(Cl)C3(Cl)C4(Cl)C(Cl)(Cl)C5(Cl)C3(Cl)C1(Cl)C5(Cl)C24Cl (configuration not stated) .
Reply | class 0
